Cited source for all entries: patent US20240076386A1

- Assay System: T1, human E-selectin extracellular domain with 10 His purification tail (human, UniProt P16581 22-556)
- T1 construct: also called soluable human E-selectin extracellular domain; rhE-Selectin
- T1 sequence: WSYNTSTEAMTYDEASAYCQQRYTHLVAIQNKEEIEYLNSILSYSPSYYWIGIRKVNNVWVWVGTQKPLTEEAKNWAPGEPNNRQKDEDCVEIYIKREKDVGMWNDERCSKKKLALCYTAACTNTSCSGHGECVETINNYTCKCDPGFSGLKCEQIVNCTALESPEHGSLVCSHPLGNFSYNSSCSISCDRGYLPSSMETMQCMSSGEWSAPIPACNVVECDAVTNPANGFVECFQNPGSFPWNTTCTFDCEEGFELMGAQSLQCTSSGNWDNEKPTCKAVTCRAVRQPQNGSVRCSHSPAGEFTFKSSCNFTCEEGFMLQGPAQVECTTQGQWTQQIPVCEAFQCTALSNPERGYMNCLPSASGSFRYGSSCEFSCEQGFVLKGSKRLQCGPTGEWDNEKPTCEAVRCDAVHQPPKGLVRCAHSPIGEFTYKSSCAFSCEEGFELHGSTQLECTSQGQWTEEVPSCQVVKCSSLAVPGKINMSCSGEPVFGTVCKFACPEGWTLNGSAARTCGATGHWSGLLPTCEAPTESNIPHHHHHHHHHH
- Assay Procedure: SPR, antibody captured, E-selectin analyte
Measured Attribute: pKd
// pKd: -log10(molar conc.)

// solved cases for pKd follow
INSERT INTO results (binder, measured_attribute, recorded_result) VALUES
  ('anti-E-selectin antibody 0180 chimera (antibody, human IgG1, kappa, V domains shown, rat VH/VL on effector-null human IgG1 and human kappa) VH: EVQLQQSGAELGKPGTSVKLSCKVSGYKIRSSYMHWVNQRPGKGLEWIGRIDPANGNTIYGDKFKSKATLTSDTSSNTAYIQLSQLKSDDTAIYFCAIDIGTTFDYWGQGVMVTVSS VL: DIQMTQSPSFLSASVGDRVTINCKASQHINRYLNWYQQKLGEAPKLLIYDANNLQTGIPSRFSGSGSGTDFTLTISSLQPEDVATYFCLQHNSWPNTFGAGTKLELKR', 'pKd', 5.53),
  ('anti-E-selectin antibody 0159 chimera (antibody, human IgG1, kappa, V domains shown, rat VH/VL on effector-null human IgG1 and human kappa) VH: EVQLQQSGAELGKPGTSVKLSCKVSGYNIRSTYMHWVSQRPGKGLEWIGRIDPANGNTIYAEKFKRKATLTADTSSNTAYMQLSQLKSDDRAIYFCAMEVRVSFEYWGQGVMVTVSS VL: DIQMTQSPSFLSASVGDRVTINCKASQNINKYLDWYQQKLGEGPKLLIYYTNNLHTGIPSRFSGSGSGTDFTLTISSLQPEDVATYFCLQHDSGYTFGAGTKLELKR', 'pKd', 6.49);

Kindly review the next binder as well.
Record anti-E-selectin antibody 0158 chimera (antibody, human IgG1, kappa, V domains shown, rat VH/VL on effector-null human IgG1 and human kappa) VH: QVQLKESGPGLVQPSETLSLTCTVSGFSISTYNVHWLRQPPGKGLEWMGMMWSGGSPDYNSALKSRLSISRDTSKNQVFLKMNSLQSEDTTTYYCARWGGGFDYWGQGVMVTVSS VL: DIVLTQSPTTLSVTPGETVSLSCRASHSIGTNLHWYQQKTNESPRLLIKFTSQSISGIPSRFSASGSGTDFTLNINNVEFDDVSSYFCQQTQSWPLTFGSGTKLEIKR , field pKd: 7.67
